molecular target: FAPα enzyme derived from membrane extracts of the 293-I/2 transfected cells (Homo sapiens, UniProt Q12884); construct: made in house; host or cells: human embryonic kidney 293 cells, clone 293-I/2, membrane extract; test: FAPα-catalyzed cleavage of 4-methoxy-β-napthylamide (MNA)-peptide conjugates, enzyme kinetics; assay type: biochemical; conditions: release of free MNA, fluorimeter 355 nm/405 nm
Sequence (Q12884 whole entry): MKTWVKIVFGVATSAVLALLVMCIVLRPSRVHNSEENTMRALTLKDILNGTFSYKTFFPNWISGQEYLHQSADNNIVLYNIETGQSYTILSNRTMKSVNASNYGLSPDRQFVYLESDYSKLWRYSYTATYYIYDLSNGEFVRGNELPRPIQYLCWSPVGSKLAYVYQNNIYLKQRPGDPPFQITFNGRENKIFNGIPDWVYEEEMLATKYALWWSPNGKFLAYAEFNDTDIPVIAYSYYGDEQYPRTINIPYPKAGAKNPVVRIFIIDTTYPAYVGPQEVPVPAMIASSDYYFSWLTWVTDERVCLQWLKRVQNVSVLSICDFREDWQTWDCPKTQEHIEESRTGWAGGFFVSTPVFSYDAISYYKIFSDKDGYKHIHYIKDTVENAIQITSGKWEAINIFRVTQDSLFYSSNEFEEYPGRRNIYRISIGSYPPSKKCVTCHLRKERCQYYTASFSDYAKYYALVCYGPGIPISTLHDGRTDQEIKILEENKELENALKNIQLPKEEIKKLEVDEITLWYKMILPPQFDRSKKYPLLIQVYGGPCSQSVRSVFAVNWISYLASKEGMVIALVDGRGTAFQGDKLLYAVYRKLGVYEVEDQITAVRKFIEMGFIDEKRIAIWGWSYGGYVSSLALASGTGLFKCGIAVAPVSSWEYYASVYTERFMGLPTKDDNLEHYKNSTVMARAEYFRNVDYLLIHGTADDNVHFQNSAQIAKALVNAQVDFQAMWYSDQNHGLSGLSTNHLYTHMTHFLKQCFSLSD
property-measured: Kcat

* COc1cc(NC(=O)C2CCCN2C(=O)C(C)N)cc2ccccc12 (centres unmarked) | 35.7 s⁻¹
* COc1cc(NC(=O)[C@@H]2CCCN2C(=O)[C@@H](N)CO)cc2ccccc12 | 28.3 s⁻¹
* COc1cc(NC(=O)[C@@H]2CCCN2C(=O)[C@@H](N)CCC(N)=O)cc2ccccc12 | 40.5 s⁻¹
* COc1cc(NC(=O)[C@@H]2CCCN2C(=O)[C@@H](N)CCSC)cc2ccccc12 | 27.9 s⁻¹
* CC[C@H](C)[C@H](N)C(=O)N1CCC[C@H]1C(=O)Nc1cc(OC)c2ccccc2c1 | 12.6 s⁻¹
* COc1cc(NC(=O)C2CCCN2C(=O)C(N)CCCCN)cc2ccccc12 (centres unmarked) | 57.1 s⁻¹
* COc1cc(NC(=O)[C@@H]2CCCN2C(=O)[C@@H]2C[C@@H](O)CN2)cc2ccccc12 [trans-Hyp-Pro-MNA] | 37.9 s⁻¹
* COc1cc(NC(=O)[C@@H]2CCCN2C(=O)[C@@H](N)C2CCCCC2)cc2ccccc12 | 53.7 s⁻¹
